Target: dopamine transporter (DAT) (Rattus norvegicus, UniProt P23977)
Construct: brains removed to an ice-cooled dish for dissection of the caudate putamen; from tissue; host or cells: rat caudate putamen, washed membranes of male Sprague-Dawley rats (Taconic)
Sequence (P23977 whole entry): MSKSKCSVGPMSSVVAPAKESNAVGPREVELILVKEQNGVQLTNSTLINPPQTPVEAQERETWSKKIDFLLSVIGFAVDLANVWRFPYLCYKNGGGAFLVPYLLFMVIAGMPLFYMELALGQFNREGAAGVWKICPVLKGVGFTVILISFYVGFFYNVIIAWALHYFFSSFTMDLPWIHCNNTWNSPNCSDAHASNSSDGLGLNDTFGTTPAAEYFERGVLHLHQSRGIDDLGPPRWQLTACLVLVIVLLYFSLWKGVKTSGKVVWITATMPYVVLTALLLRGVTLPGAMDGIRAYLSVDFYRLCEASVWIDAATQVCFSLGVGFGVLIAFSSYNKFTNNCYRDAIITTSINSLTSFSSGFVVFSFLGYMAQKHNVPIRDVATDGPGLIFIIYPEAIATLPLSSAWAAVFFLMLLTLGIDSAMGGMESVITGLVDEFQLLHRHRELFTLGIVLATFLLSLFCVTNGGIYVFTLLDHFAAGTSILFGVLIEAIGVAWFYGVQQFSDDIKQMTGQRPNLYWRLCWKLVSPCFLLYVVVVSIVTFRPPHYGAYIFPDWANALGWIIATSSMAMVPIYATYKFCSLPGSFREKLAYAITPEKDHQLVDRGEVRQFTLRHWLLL
Test: Displacement of [^3 H]WIN 35,428 binding (Dopamine Transporter Binding Assay)
Settings: Table III; displacement of [^3 H]WIN 35,428, rat caudate putamen; % error in parentheses
endpoint: log10 of Ki (log10 of the value in nM)
Values reflect log10 of reported Ki (nM).

CN1[C@@H]2CC[C@H]1C[C@@H](OC(c1ccccc1)c1ccc(O)cc1)C2 (stereo partly drawn) [Compound 7r, 3α-4'-Hydroxy-(diphenylmethoxy)tropane] : 2.47
Cc1ccc(C(O[C@H]2C[C@H]3CC[C@@H](C2)N3C)c2ccccc2)cc1 (some centres unmarked) [Compound 7p] : 2.27
CN1[C@@H]2CC[C@H]1C[C@@H](OC(c1ccccc1)c1ccc(C#N)cc1)C2 (some centres unmarked) [Compound 7g] : 2.29
CN1[C@@H]2CC[C@H]1C[C@@H](OC(c1ccc(F)cc1)c1ccc(Cl)c(Cl)c1)C2 (some centres unmarked) [Compound 7l] : 1.28
Cc1ccc(C(O[C@H]2C[C@H]3CC[C@@H](C2)N3C)c2ccc(C)cc2)cc1 [Compound 7o] : 2.62

Incoming: Dear colleague, I am looking for the recorded log10 of Ki of the following compound: CN1[C@@H]2CC[C@H]1C[C@@H](OC(c1ccc(Br)cc1)c1ccc(Br)cc1)C2 [Compound 7i]
Outgoing: 1.96

Incoming: Dear colleague, I am looking for the recorded log10 of Ki of the following compound: CN1[C@@H]2CC[C@H]1C[C@@H](OC(c1ccccc1)c1ccc(Br)cc1)C2 (some centres unmarked) [Compound 7h]
Outgoing: 1.58

Incoming: Dear colleague, I am looking for the recorded log10 of Ki of the following compound: CN1[C@@H]2CC[C@H]1C[C@@H](OC(c1ccccc1)c1ccc([N+](=O)[O-])cc1)C2 (some centres unmarked) [Compound 7f]
Outgoing: 2.29

----------
Biological target: muscarinic m2 receptors (Rattus norvegicus, UniProt P10980)
Sequence (P10980 whole entry): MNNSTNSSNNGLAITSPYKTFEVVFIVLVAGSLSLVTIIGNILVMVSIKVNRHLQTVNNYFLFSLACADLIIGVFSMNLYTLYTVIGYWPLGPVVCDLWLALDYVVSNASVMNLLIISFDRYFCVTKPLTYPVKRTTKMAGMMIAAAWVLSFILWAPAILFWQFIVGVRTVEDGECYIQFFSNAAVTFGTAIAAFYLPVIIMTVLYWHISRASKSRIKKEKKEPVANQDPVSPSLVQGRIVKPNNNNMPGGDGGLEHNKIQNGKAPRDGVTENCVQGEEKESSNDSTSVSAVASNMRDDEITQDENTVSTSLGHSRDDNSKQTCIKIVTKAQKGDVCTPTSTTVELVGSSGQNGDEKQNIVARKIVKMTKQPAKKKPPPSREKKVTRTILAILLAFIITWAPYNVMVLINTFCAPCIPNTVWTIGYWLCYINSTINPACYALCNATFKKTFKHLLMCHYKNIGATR
Assay: Muscarinic m2 receptor binding ([^3 H]AFDX 384), NOVASCREEN
Details: Table III
endpoint: Ki (nM)
Respond with the bare value in nM.

Known Ki results, listed for orientation:
CN1[C@@H]2CC[C@H]1C[C@@H](OC(c1ccc(F)cc1)c1ccc(Cl)c(Cl)c1)C2 (some centres unmarked) : 369
COc1ccc(C(O[C@H]2C[C@H]3CC[C@@H](C2)N3C)c2ccc(OC)cc2)cc1 : 1000
CN1[C@@H]2CC[C@H]1C[C@@H](OC(c1ccccc1)c1ccc(C(F)(F)F)cc1)C2 (some centres unmarked) : 1510
CN1[C@@H]2CC[C@H]1C[C@@H](OC(c1ccccc1)c1ccc(Br)cc1)C2 (some centres unmarked) : 39.1
Cc1ccc(C(O[C@H]2C[C@H]3CC[C@@H](C2)N3C)c2ccccc2)cc1 (some centres unmarked) : 37.5
Cc1ccc(C(O[C@H]2C[C@H]3CC[C@@H](C2)N3C)c2ccc(C)cc2)cc1 : 716

Incoming: Dear colleague, I am looking for the recorded Ki of the following compound: CCc1ccc(C(O[C@H]2C[C@H]3CC[C@@H](C2)N3C)c2ccccc2)cc1 (some centres unmarked)
Outgoing: 703

Incoming: Dear colleague, I am looking for the recorded Ki of the following compound: CN1[C@@H]2CC[C@H]1C[C@@H](OC(c1ccccc1)c1ccc(C#N)cc1)C2 (some centres unmarked)
Outgoing: 74

Incoming: Dear colleague, I am looking for the recorded Ki of the following compound: CN1[C@@H]2CC[C@H]1C[C@@H](OC(c1ccccc1)c1ccc(O)cc1)C2 (stereo partly drawn) [Compound 7r, 3α-4'-Hydroxy-(diphenylmethoxy)tropane]
Outgoing: 17.7

Incoming: Dear colleague, I am looking for the recorded Ki of the following compound: CN1[C@@H]2CC[C@H]1C[C@@H](OC(c1ccccc1)c1ccc([N+](=O)[O-])cc1)C2 (some centres unmarked)
Outgoing: 41.9

Incoming: Dear colleague, I am looking for the recorded Ki of the following compound: CN1[C@@H]2CC[C@H]1C[C@@H](OC(c1ccccc1)c1ccc(Cl)c(Cl)c1)C2 (some centres unmarked)
Outgoing: 141

Incoming: Dear colleague, I am looking for the recorded Ki of the following compound: COc1ccc(C(O[C@H]2C[C@H]3CC[C@@H](C2)N3C)c2ccccc2)cc1 (some centres unmarked)
Outgoing: 18.9

Incoming: Dear colleague, I am looking for the recorded Ki of the following compound: CN1[C@@H]2CC[C@H]1C[C@@H](OC(c1ccc(Cl)cc1)c1ccc(Cl)cc1)C2
Outgoing: 1490

Incoming: Dear colleague, I am looking for the recorded Ki of the following compound: CN1[C@@H]2CC[C@H]1C[C@@H](OC(c1ccccc1)c1ccc(F)cc1)C2 (some centres unmarked)
Outgoing: 15

----------
Molecular target: muscarinic m1 receptors (Rattus norvegicus, UniProt P08482)
Assay: biochemical
Assay type: binding
Settings: Table III; read-out: m1, Ki
In this section we review reported log10 of Ki values for a set of compounds.
Values reflect log10 of reported Ki (nM).

Known log10 of Ki results, listed for orientation:
CCc1ccc(C(O[C@H]2C[C@H]3CC[C@@H](C2)N3C)c2ccccc2)cc1 (some centres unmarked) [Compound 7q] : 1.10
CN1[C@@H]2CC[C@H]1C[C@@H](OC(c1ccccc1)c1ccc(C(F)(F)F)cc1)C2 (some centres unmarked) [Compound 7m] : 0.73
COc1ccc(C(O[C@H]2C[C@H]3CC[C@@H](C2)N3C)c2ccccc2)cc1 (stereo partly drawn) [Compound 7d, 4'-methoxy-3α-(diphenylmethoxy)tropane] : 0.62
Cc1ccc(C(O[C@H]2C[C@H]3CC[C@@H](C2)N3C)c2ccccc2)cc1 (some centres unmarked) [Compound 7p] : 0.43
CN1[C@@H]2CC[C@H]1C[C@@H](OC(c1ccccc1)c1ccc(F)cc1)C2 (some centres unmarked) [Compound 7j] : 0.04

Incoming: GET /values?readout=log10 of Ki&system=muscarinic m1 receptors (Rattus norvegicus, UniProt P08482)&item= CN1[C@@H]2CC[C@H]1C[C@@H](OC(c1ccccc1)c1ccc(Cl)c(Cl)c1)C2 (some centres unmarked) [Compound 7k]
Outgoing: 1.10

Incoming: GET /values?readout=log10 of Ki&system=muscarinic m1 receptors (Rattus norvegicus, UniProt P08482)&item= CN1[C@@H]2CC[C@H]1C[C@@H](OC(c1ccc(F)cc1)c1ccc(Cl)c(Cl)c1)C2 (some centres unmarked) [Compound 7l]
Outgoing: 1.52

Incoming: GET /values?readout=log10 of Ki&system=muscarinic m1 receptors (Rattus norvegicus, UniProt P08482)&item= CN1[C@@H]2CC[C@H]1C[C@@H](OC(c1ccccc1)c1ccc(Br)cc1)C2 (some centres unmarked) [Compound 7h]
Outgoing: 0.57

----------
In this section we review reported pKi values for a set of compounds.
Target: muscarinic m1 receptors (Rattus norvegicus, UniProt P08482)
Test: biochemical
Format: binding
Keep in mind that pKi stands for -log10 of concentration in molar terms.

Fc1ccc(CN2[C@@H]3CC[C@H]2C[C@@H](OC(c2ccc(F)cc2)c2ccc(F)cc2)C3)cc1 [JKW 009] : 9.35
Fc1ccc(C(O[C@H]2C[C@H]3CC[C@@H](C2)N3CC=Cc2ccccc2)c2ccc(F)cc2)cc1 [AHN 2-006] : 6.62
Fc1ccc(C(O[C@H]2C[C@H]3CC[C@@H](C2)N3CCCc2ccccc2)c2ccc(F)cc2)cc1 [JHW 010] : 6.56

Incoming: GET /values?readout=pKi&system=muscarinic m1 receptors (Rattus norvegicus, UniProt P08482)&item= CCCCN1[C@@H]2CC[C@H]1C[C@@H](OC(c1ccc(F)cc1)c1ccc(F)cc1)C2 [JHW 007]
Outgoing: 6.28

----------
Target: serotonin transporter (5HTT) (Rattus norvegicus, UniProt P31652)
Sequence (P31652 whole entry): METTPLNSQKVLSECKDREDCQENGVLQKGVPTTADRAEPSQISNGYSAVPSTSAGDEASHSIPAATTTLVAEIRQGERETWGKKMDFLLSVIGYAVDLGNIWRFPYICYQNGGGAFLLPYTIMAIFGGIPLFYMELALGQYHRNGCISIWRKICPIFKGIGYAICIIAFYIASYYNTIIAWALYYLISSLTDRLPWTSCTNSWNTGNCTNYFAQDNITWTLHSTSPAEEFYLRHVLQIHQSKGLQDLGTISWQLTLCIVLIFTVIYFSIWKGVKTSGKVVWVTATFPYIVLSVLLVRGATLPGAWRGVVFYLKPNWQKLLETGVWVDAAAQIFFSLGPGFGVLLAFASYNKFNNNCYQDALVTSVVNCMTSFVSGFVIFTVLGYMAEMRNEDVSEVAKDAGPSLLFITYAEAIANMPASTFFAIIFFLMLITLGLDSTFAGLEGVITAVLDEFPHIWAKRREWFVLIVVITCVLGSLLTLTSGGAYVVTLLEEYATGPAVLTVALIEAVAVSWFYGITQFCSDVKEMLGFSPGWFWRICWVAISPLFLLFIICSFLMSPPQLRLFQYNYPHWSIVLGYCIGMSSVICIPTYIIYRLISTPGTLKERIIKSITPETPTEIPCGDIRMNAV
Experiment: Serotonin transporter binding ([^3 H]citalopram), NOVASCREEN
Details: Table III, footnote d; read-out: 5HTT Ki value in nM (bracketed)
endpoint: Ki

CN1[C@@H]2CC[C@H]1C[C@@H](OC(c1ccccc1)c1ccc(Cl)c(Cl)c1)C2 (stereo partly shown) : > 1790 nM
CN1[C@@H]2CC[C@H]1C[C@@H](OC(c1ccccc1)c1ccc([N+](=O)[O-])cc1)C2 (stereo partly shown) : > 3570 nM

Incoming: GET /values?readout=Ki&system=serotonin transporter (5HTT) (Rattus norvegicus, UniProt P31652)&item= CN1[C@@H]2CC[C@H]1C[C@@H](OC(c1ccc(F)cc1)c1ccc(F)cc1)C2
Outgoing: > 2440 nM

Incoming: GET /values?readout=Ki&system=serotonin transporter (5HTT) (Rattus norvegicus, UniProt P31652)&item= CN1[C@@H]2CC[C@H]1C[C@@H](OC(c1ccc(F)cc1)c1ccc(Cl)c(Cl)c1)C2 (stereo partly shown)
Outgoing: > 691 nM

----------
Molecular target: muscarinic m1 receptors (Rattus norvegicus, UniProt P08482)
Sequence (P08482 1-460): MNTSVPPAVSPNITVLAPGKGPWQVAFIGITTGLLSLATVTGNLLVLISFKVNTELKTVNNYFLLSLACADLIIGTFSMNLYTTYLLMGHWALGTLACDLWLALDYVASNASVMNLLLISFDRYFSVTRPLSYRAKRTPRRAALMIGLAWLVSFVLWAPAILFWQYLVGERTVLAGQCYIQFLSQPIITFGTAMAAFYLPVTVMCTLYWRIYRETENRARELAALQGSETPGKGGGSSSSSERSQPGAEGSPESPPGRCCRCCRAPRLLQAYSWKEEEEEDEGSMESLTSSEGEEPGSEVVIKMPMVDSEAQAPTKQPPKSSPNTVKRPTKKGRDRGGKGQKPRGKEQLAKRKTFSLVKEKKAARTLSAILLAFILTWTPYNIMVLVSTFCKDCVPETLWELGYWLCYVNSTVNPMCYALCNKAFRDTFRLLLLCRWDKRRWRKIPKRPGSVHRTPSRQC
Assay: biochemical
Type: binding
Conditions: Table IV; read-out: m1, Ki
endpoint: Ki (µM)
Respond with the bare value in µM.

Known Ki results, listed for orientation:
Fc1ccc(C(O[C@H]2C[C@H]3CC[C@@H](C2)N3)c2ccc(F)cc2)cc1 : 0.0907
C=CCN1[C@@H]2CC[C@H]1C[C@@H](OC(c1ccc(F)cc1)c1ccc(F)cc1)C2 : 0.0891

Incoming: Dear colleague, I am looking for the recorded Ki of the following molecule: Fc1ccc(C(O[C@H]2C[C@H]3CC[C@@H](C2)N3CC2CC2)c2ccc(F)cc2)cc1
Outgoing: 0.0077

Incoming: Dear colleague, I am looking for the recorded Ki of the following molecule: Fc1ccc(C(O[C@H]2C[C@H]3CC[C@@H](C2)N3Cc2ccccc2)c2ccc(F)cc2)cc1
Outgoing: 2.49
